- protocol_text: Hemolytic activity assay
- Format: cell-based, murine
- assay_context: mouse, murine red blood cells (mRBCs); 3.9 μg/mL, mRBCs, 37 °C 1 h, ± SDEV
Measured hemolysis at 1 h, 3.9 μg/mL values are reported for all entries that follow.

smiles_structure	hemolysis at 1 h, 3.9 μg/mL [%]
NC[C@H]1O[C@H](O[C@H]2[C@H](O)[C@@H](O[C@H]3O[C@H](CO)[C@@H](O)[C@H](N)[C@H]3O)[C@H](N)C[C@@H]2N)[C@H](N)C[C@@H]1O	15.9
CCCCCCCCCCCCSC[C@H]1O[C@H](O[C@@H]2[C@@H](O)[C@H](O[C@H]3O[C@H](CN)[C@@H](O)C[C@H]3N)[C@@H](N)C[C@H]2N)[C@H](O)[C@@H](N)[C@@H]1O	12
CCCCCCCCCCCC(=O)NC[C@H]1O[C@H](O[C@@H]2[C@@H](O)[C@H](O[C@H]3O[C@H](CN)[C@@H](O)C[C@H]3N)[C@@H](N)C[C@H]2N)[C@H](O)[C@@H](N)[C@@H]1O	4.1

---

- protocol_text: Hemolytic activity assay
- Type: cell-based, murine
- assay_context: mouse, murine red blood cells (mRBCs); 7.8 μg/mL, mRBCs, 37 °C 1 h, ± SDEV
outcome_measure: hemolysis at 1 h, 7.8 μg/mL (%)

smiles_structure	outcome_measure	observed
CCCCCCCCCCCC(=O)NC[C@H]1O[C@H](O[C@@H]2[C@@H](O)[C@H](O[C@H]3O[C@H](CN)[C@@H](O)C[C@H]3N)[C@@H](N)C[C@H]2N)[C@H](O)[C@@H](N)[C@@H]1O	hemolysis at 1 h, 7.8 μg/mL	10.1
CCCCCCCCCCc1cn(C[C@H]2O[C@H](O[C@@H]3[C@@H](O)[C@H](O[C@H]4O[C@H](CN)[C@@H](O)C[C@H]4N)[C@@H](N)C[C@H]3N)[C@H](O)[C@@H](N)[C@@H]2O)nn1	hemolysis at 1 h, 7.8 μg/mL	7.4
CCCCCCCCCCCCc1cn(C[C@H]2O[C@H](O[C@@H]3[C@@H](O)[C@H](O[C@H]4O[C@H](CN)[C@@H](O)C[C@H]4N)[C@@H](N)C[C@H]3N)[C@H](O)[C@@H](N)[C@@H]2O)nn1	hemolysis at 1 h, 7.8 μg/mL	24.6
CCCCCCCCCCCCS(=O)(=O)C[C@H]1O[C@H](O[C@@H]2[C@@H](O)[C@H](O[C@H]3O[C@H](CN)[C@@H](O)C[C@H]3N)[C@@H](N)C[C@H]2N)[C@H](O)[C@@H](N)[C@@H]1O	hemolysis at 1 h, 7.8 μg/mL	10.7
NC[C@H]1O[C@H](O[C@H]2[C@H](O)[C@@H](O[C@H]3O[C@H](CO)[C@@H](O)[C@H](N)[C@H]3O)[C@H](N)C[C@@H]2N)[C@H](N)C[C@@H]1O	hemolysis at 1 h, 7.8 μg/mL	11.2

---

- protocol_text: Hemolytic activity assay
- Type: cell-based, murine
- assay_context: mouse, murine red blood cells (mRBCs); 15.6 μg/mL, mRBCs, 37 °C 1 h, ± SDEV
outcome_measure: hemolysis at 1 h, 15.6 μg/mL

compound	outcome_measure	observed
CCCCCCCCCCCCS(=O)(=O)C[C@H]1O[C@H](O[C@@H]2[C@@H](O)[C@H](O[C@H]3O[C@H](CN)[C@@H](O)C[C@H]3N)[C@@H](N)C[C@H]2N)[C@H](O)[C@@H](N)[C@@H]1O [Compound 4]	hemolysis at 1 h, 15.6 μg/mL	15.3%
CCCCCCCCCCCC(=O)NC[C@H]1O[C@H](O[C@@H]2[C@@H](O)[C@H](O[C@H]3O[C@H](CN)[C@@H](O)C[C@H]3N)[C@@H](N)C[C@H]2N)[C@H](O)[C@@H](N)[C@@H]1O [Compound 9]	hemolysis at 1 h, 15.6 μg/mL	18.3%
CCCCCCCCCCc1cn(C[C@H]2O[C@H](O[C@@H]3[C@@H](O)[C@H](O[C@H]4O[C@H](CN)[C@@H](O)C[C@H]4N)[C@@H](N)C[C@H]3N)[C@H](O)[C@@H](N)[C@@H]2O)nn1 [Compound 7a]	hemolysis at 1 h, 15.6 μg/mL	14%
CCCCCCCCCCCCc1cn(C[C@H]2O[C@H](O[C@@H]3[C@@H](O)[C@H](O[C@H]4O[C@H](CN)[C@@H](O)C[C@H]4N)[C@@H](N)C[C@H]3N)[C@H](O)[C@@H](N)[C@@H]2O)nn1 [Compound 7b]	hemolysis at 1 h, 15.6 μg/mL	40.8%
NC[C@H]1O[C@H](O[C@H]2[C@H](O)[C@@H](O[C@H]3O[C@H](CO)[C@@H](O)[C@H](N)[C@H]3O)[C@H](N)C[C@@H]2N)[C@H](N)C[C@@H]1O [TOB, tobramycin]	hemolysis at 1 h, 15.6 μg/mL	15.3%
CCCCCCCCCCCCSC[C@H]1O[C@H](O[C@@H]2[C@@H](O)[C@H](O[C@H]3O[C@H](CN)[C@@H](O)C[C@H]3N)[C@@H](N)C[C@H]2N)[C@H](O)[C@@H](N)[C@@H]1O [Compound 3]	hemolysis at 1 h, 15.6 μg/mL	46.2%
C[C@@H]1[C@H](O)[C@@H](C)/C=C/C=C/C=C/C=C/C=C/C=C/C=C/[C@H](O[C@@H]2O[C@H](C)[C@@H](O)[C@H](N)[C@@H]2O)C[C@@H]2O[C@](O)(C[C@@H](O)C[C@@H](O)[C@H](O)CC[C@@H](O)C[C@@H](O)CC(=O)O[C@H]1C)C[C@H](O)[C@H]2C(=O)O [AmB, amphotericin B, reference compound]	hemolysis at 1 h, 15.6 μg/mL	31.9%
